# STUDY_TARGET: human PRMT5/MEP50 (Homo sapiens (Human), UniProt O14744)
# Sequence (O14744 whole entry): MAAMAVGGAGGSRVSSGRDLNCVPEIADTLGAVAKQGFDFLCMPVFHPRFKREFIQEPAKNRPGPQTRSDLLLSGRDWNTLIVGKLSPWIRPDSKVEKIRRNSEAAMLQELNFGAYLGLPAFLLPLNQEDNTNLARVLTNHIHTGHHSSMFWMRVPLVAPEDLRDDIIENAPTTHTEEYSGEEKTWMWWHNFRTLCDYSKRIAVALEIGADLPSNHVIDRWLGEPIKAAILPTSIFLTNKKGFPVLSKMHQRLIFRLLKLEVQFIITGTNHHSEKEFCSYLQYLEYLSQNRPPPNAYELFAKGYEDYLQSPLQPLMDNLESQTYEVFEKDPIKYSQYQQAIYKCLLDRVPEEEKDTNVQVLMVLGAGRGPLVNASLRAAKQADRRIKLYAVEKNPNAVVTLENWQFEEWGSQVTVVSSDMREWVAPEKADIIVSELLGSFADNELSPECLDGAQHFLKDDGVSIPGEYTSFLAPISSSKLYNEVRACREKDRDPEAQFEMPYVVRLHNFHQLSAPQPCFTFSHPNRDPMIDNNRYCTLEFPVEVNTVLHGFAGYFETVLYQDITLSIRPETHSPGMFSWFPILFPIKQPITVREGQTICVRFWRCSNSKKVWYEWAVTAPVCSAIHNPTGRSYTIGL
# Sequence (Q9BQA1 whole entry partner): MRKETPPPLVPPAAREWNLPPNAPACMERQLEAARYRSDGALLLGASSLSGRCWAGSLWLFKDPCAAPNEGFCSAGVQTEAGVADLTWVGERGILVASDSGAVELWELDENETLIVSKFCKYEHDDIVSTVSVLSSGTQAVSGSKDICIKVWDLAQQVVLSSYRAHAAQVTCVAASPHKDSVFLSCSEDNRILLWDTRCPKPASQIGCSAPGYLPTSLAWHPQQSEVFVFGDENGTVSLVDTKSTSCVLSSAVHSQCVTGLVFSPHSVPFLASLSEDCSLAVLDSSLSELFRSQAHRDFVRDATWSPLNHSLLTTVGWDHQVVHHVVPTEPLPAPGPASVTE
# MEASUREMENT_NOTES: PRMT5 chemiluminescent assay
# TEST_CONDITIONS: human PRMT5/MEP50 expressed in HEK293 cells; biotinylated histone peptides; Histone H4 monomethyl R3 antibody; chemiluminescent readout
Provide the reported log10(IC50) of each item.
Lab note - IC50 converted to log10 from values in µM.

Solved cases (8 shown):
>  <COMPOUND>
O=C(NCC(O)CN1CCc2ccccc2C1)N1CCCN(Cc2ccccc2)CC1 (stereo not shown) [Example 1T]

>  <log10(IC50)>
-1.40

$$$$
>  <COMPOUND>
O=C(NC[C@H](O)CN1CCc2ccccc2C1)N1CCCC(c2ccc(F)cc2)C1 (stereo partly shown) [Example 1BU]

>  <log10(IC50)>
-1.92

$$$$
>  <COMPOUND>
O=C(NCC(O)CN1CCc2ccccc2C1)N1CCCCC1 (stereo not shown) [Example 1L]

>  <log10(IC50)>
0.22

$$$$
>  <COMPOUND>
COC(=O)N1CCCN(C(=O)NC[C@@H](O)CN2CCc3ccccc3C2)CC1 [Example 1BC]

>  <log10(IC50)>
1.52

$$$$
>  <COMPOUND>
O=C(NC[C@H](O)CN1CCc2ccccc2C1)N1CCC[C@@H](c2ccccc2)C1 [Example 1AN]

>  <log10(IC50)>
-1.85

$$$$
>  <COMPOUND>
O=C(NCC(O)CN1CCc2ccccc2C1)N1CCc2ccccc2C1 (stereo not shown) [Example 1I]

>  <log10(IC50)>
-0.68

$$$$
>  <COMPOUND>
O=C(NCC(O)CN1CCc2ccccc2C1)N1CCCCc2ccccc21 (stereo not shown) [Example 1J]

>  <log10(IC50)>
-0.49

$$$$
>  <COMPOUND>
O=C(NC[C@H](O)CN1CCc2ccccc2C1)N1CCCSC(c2ccccc2)C1 (stereo partly shown) [Example 1BN]

>  <log10(IC50)>
-0.98

$$$$

Hi! Can you tell me log10(IC50) for each of these compounds?
1. O=C(NC[C@H](O)CN1CCc2ccccc2C1)N1CCC[C@@H](c2ccccc2)C1 (single isomer, unassigned) [Example 5B]
2. O=C(NC[C@H](O)CN1CCc2ccccc2C1)N1CCC[C@H](C2CCOCC2)C1 (single isomer, unassigned) [Example 5H]
3. COC(=O)N1CCCN(C(=O)NC[C@H](O)CN2CCc3ccccc3C2)CC1 [Example 1AS]
4. CS(=O)(=O)N1CCCN(C(=O)NC[C@@H](O)CN2CCc3ccccc3C2)CC1 [Example 1BD]
5. O=C(NCC(O)CN1CCc2ccccc2C1)N1CCC(Cc2ccccc2)CC1 (stereo not shown) [Example 1Q]
6. O=C(OCC(O)CN1CCc2ccccc2C1)N1CCC(C(=O)N2CCOCC2)CC1 (stereo not shown) [Example 4B]
7. O=C(NCC(O)CN1CCc2ccccc2C1)N1CCC(Oc2ccccc2)CC1 (stereo not shown) [Example 1G]

1. -0.22
2. -0.29
3. -0.95
4. 1.76
5. -0.56
6. -1.12
7. -0.25

---

# STUDY_TARGET: human PRMT5/MEP50 (Homo sapiens (Human))
# MEASUREMENT_NOTES: PRMT5 chemiluminescent assay
# TEST_CONDITIONS: human PRMT5/MEP50 expressed in HEK293 cells; biotinylated histone peptides; Histone H4 monomethyl R3 antibody; chemiluminescent readout
Provide the reported pIC50 of each item.
Answers are plain numbers, as −log10 of the molar value.

>  <COMPOUND>
O=C(NC[C@@H](O)CN1CCc2ccccc2C1)N1CCc2ccccc2C1

>  <DATA_VALUE>
5.82

$$$$
>  <COMPOUND>
O=C(NC[C@H](O)CN1CCc2ccccc2C1)N1CCCN(C(=O)c2cccs2)CC1

>  <DATA_VALUE>
5.15

$$$$
>  <COMPOUND>
O=C(OC[C@H](O)CN1CCc2ccccc2C1)N1CCC(C(=O)N2C3CCC2COC3)CC1

>  <DATA_VALUE>
6.80

$$$$
>  <COMPOUND>
O=C(NCC(O)CN1CCc2ccccc2C1)N1CCCC(O)C1 (stereo not shown)

>  <DATA_VALUE>
6.48

$$$$

Hi! Can you tell me pIC50 for each of these compounds?
1. O=C(NC[C@H](O)CN1CCc2ccccc2C1)N1CCC[C@H](c2ccccn2)C1 (single isomer, unassigned) [Example 5E]
2. O=C(OC[C@@H](O)CN1CCc2ccccc2C1)N1CCC(c2ccccc2)C1 (stereo partly shown)
3. O=C(NC[C@H](O)CN1CCc2ccccc2C1)N1CCCC(n2cccn2)C1 (stereo partly shown)
4. CC(=O)N1CCN(C(=O)NCC(O)CN2CCc3ccccc3C2)CC1 (stereo not shown)
5. O=C(OCC(O)CN1CCc2ccccc2C1)N1CCCc2ccccc21 (stereo not shown)
6. O=C(NC[C@H](O)CN1CCc2ccccc2C1)N1CCCC(C2CCSCC2)C1 (stereo partly shown)
7. O=C(NCC(O)CN1CCc2ccccc2C1)N1CCC(c2ccccc2)CC1 (stereo not shown)

7.09
7.31
6.40
5.00
6.44
7.24
6.34

Hi! Can you tell me pIC50 for each of these compounds?
1. O=C(NC[C@H](O)CN1CCc2ccccc2C1)N1CCC[C@H](c2ccccc2)C1
2. O=C(NC[C@H](O)CN1CCc2ccccc2C1)N1CCCC(c2cnccn2)C1 (stereo partly shown)

[8.05, 6.63]

---

Provide the reported IC50 of each item.
# STUDY_TARGET: human PRMT5/MEP50 (Homo sapiens (Human), UniProt O14744)
# MEASUREMENT_NOTES: PRMT5 chemiluminescent assay
# TEST_CONDITIONS: human PRMT5/MEP50 expressed in HEK293 cells; biotinylated histone peptides; Histone H4 monomethyl R3 antibody; chemiluminescent readout
Numbers only, in nM.

Solved cases (5 shown):
>  <MOLECULE>
O=C(NC[C@H](O)CN1CCc2ccccc2C1)N1CCS[C@@H](c2ccccc2)C1 (single isomer, unassigned) [Example 5C]

>  <IC50, nM>
17

$$$$
>  <MOLECULE>
O=C(NC[C@H](O)CN1CCc2ccccc2C1)N1CCC(c2ccccn2)C1 (stereo partly drawn)

>  <IC50, nM>
97

$$$$
>  <MOLECULE>
O=C(NC[C@H](O)CN1CCc2ccccc2C1)N1CCSC(c2ccccc2)C1 (stereo partly drawn)

>  <IC50, nM>
108

$$$$
>  <MOLECULE>
O=C(NCC(O)CN1CCc2ccccc2C1)N1CCCC1 (stereo not drawn)

>  <IC50, nM>
6870

$$$$
>  <MOLECULE>
O=C(OC[C@H](O)CN1CCc2ccccc2C1)N1CC[C@H](c2ccccc2)C1

>  <IC50, nM>
13

$$$$

Hi! Can you tell me IC50 for each of these molecules?
1. O=C(OCC(O)CN1CCc2ccsc2C1)N1CCc2ccccc2C1 (stereo not drawn)
2. O=C(NC[C@@H](O)CN1CCc2ccccc2C1)N1CCC(C(=O)N2C3CCC2COC3)CC1
3. O=C(OCC(O)CN1CCc2ccccc2C1)N1CCC(Cc2ccccc2)CC1 (stereo not drawn)
4. O=C(NC[C@H](O)CN1CCc2ccccc2C1)N1CCC(O)(c2ccccc2)C1 (stereo partly drawn)
5. O=C(NC[C@H](O)CN1CCc2ccccc2C1)N1CCCC(N2CCOCC2)C1 (stereo partly drawn)
6. O=C(NCC(O)CN1CCc2ccccc2C1)N1CC(C(=O)N2C3CCC2COC3)C1 (stereo not drawn)

1: 1010; 2: 3080; 3: 173; 4: 399; 5: 2860; 6: 376

What does the record list as IC50 for O=C(OCC(O)CN1CCc2ccccc2C1)N1CCCC1 (stereo not drawn) ?
9560

---

# STUDY_TARGET: human PRMT5/MEP50 (Homo sapiens (Human))
# MEASUREMENT_NOTES: PRMT5 chemiluminescent assay
# TEST_CONDITIONS: human PRMT5/MEP50 expressed in HEK293 cells; biotinylated histone peptides; Histone H4 monomethyl R3 antibody; chemiluminescent readout
Provide the reported IC50 of each item.
Answers are plain numbers, in µM.

Hi! Can you tell me IC50 for each of these molecules?
1. O=C(NCC(O)CN1CCc2ccccc2C1)N1CCC(c2ccccc2)C1 (stereo not shown)
2. O=C(OCC(O)CN1CCc2ccccc2C1)N1CCCC(Nc2ccncc2)C1 (stereo not shown)
3. O=C(NC[C@H](O)CN1CCc2ccccc2C1)N1CCC(F)(F)CC1
4. CN(C)C(=O)C1CN(C(=O)NCC(O)CN2CCc3ccccc3C2)C1 (stereo not shown)
5. O=C(NC[C@H](O)CN1CCc2ccccc2C1)N1CCCC(n2ccnc2)C1 (stereo partly shown)
6. O=C(NC[C@H](O)CN1CCc2ccccc2C1)N1CCC(N2CCOCC2)C1 (stereo partly shown)

[0.29, 0.025, 5.6, 8.54, 4.44, 12.3]

Hi! Can you tell me IC50 for each of these molecules?
1. O=C(NC[C@H](O)CN1CCc2ccccc2C1)N1CCC(C(=O)N2C3CCC2COC3)CC1
2. O=C(OCC(O)CN1CCc2ccccc2C1)N1CCCCC1 (stereo not shown)
3. O=C(NCC(O)CN1CCc2ccccc2C1)N1CCSCC1 (stereo not shown)
4. O=C(NC[C@H](O)CN1CCc2ccccc2C1)N1CCCN(C(=O)c2ccccc2)CC1
5. O=C(NC[C@H](O)CN1CCc2ccccc2C1)N1CCCC(C2CCOCC2)C1 (stereo partly shown)
6. O=C(OCC(O)CN1CCc2sccc2C1)N1CCC(c2ccccc2)C1 (stereo not shown)
7. O=C(NC[C@H](O)CN1CCc2ccccc2C1)N1CCS[C@@H](c2ccccc2)C1 (single isomer, unassigned) [Example 5D]
8. O=C(OCC(O)CN1CCc2sccc2C1)N1CCc2ccccc2C1 (stereo not shown)

1. 0.159
2. 0.613
3. 0.896
4. 0.658
5. 0.27
6. 0.041
7. 0.101
8. 0.046

Hi! Can you tell me IC50 for each of these molecules?
1. O=C(OCC(O)CN1CCc2ccccc2C1)N1CCC(c2ccccc2)C1 (stereo not shown)
2. O=C(NC[C@H](O)CN1CCc2ccccc2C1)N1CCC[C@H](C2CCOCC2)C1 (single isomer, unassigned) [Example 5G]
3. O=C(OC[C@H](O)CN1CCc2ccccc2C1)N1CCC(c2ccccc2)C1 (stereo partly shown)

1: 0.015; 2: 0.394; 3: 0.019

Hi! Can you tell me IC50 for each of these molecules?
1. O=C(NC[C@H](O)CN1CCc2ccccc2C1)N1CCC[C@H](c2ccccn2)C1 (single isomer, unassigned) [Example 5F]
2. O=C(NCC(O)CN1CCc2ccccc2C1)N1CCC(C(=O)N2C3CCC2COC3)CC1 (stereo not shown)

1. 0.097
2. 0.011
